- Tested on: Escherichia coli
- conditionContext: Concentration 32 ug.mL-1;; ASSAY_TEST Inhibition of Bacterial Growth; detection method Absorption (OD600); MEDIA CAMHB; plate type 384well; NBS; CORNING #3640; time 18 hr
- Description: Antibacterial activity against Escherichia coli ATCC 25922 (CO-ADD:GN_001); MIC in CAMBH media using NBS plates, by OD(600)
Measured potencies and affinities stand elsewhere.
Can you tell me Inhibition for the items I'm about to list?
Enter your answer as a number in %; do not include the unit.

Tell me measured Inhibition for CCC(Sc1nnc2c(=O)n(-c3ccc(F)cc3)ccn12)C(=O)Nc1cc(OC)cc(OC)c1 (stereo not given) please. -3.99

Tell me measured Inhibition for COc1ccc(NC(=O)C(C)Sc2nnc3c(=O)n(-c4cccc(OC)c4)ccn23)cc1 (stereo not given) please. -9.09

Tell me measured Inhibition for O=C(CSc1nnc2c(=O)n(-c3ccccc3)ccn12)Nc1ccc(Br)cc1F please. -9.92

Tell me measured Inhibition for CC(C)c1nnc2c(SCC(=O)N3CCN(c4ccc(F)cc4)CC3)nc3ccccc3n12 please. -1.94

Tell me measured Inhibition for Cc1cc(C)cc(N(Cc2cccc(F)c2)S(=O)(=O)c2cccn3c(C)nnc23)c1 please. -5.24

Tell me measured Inhibition for COc1ccc(C)cc1NC(=O)Cn1nc2cc(C)nc(Nc3ccc(F)cc3)n2c1=O please. 2.14

Tell me measured Inhibition for COc1ccccc1CNC(=O)Cn1nc2c(N3CCCCCC3)nccn2c1=O please. -0.92

Tell me measured Inhibition for COc1ccc(NC(=O)Cn2nc3nc(N4CCOCC4)ccn3c2=O)cc1Cl please. -5.98

Tell me measured Inhibition for CCOc1ccc(-n2ccn3c(SCC(=O)Nc4ccccc4C(F)(F)F)nnc3c2=O)cc1 please. 2.18

Tell me measured Inhibition for CCOC(=O)c1ccc(NC(=O)Cn2nc3c(SC4CCCCC4)nccn3c2=O)cc1 please. -5.89

* * *

Can you tell me Inhibition for the items I'm about to list?
- Tested on: Escherichia coli
- conditionContext: Concentration 32 ug.mL-1;; ASSAY_TEST Inhibition of Bacterial Growth; detection method Absorption (OD600); MEDIA CAMHB; plate type 384well; NBS; CORNING #3640; time 18 hr
Potency and affinity values are given separately.
Enter your answer as a number in %; do not include the unit.

Tell me measured Inhibition for CC(C)c1nnc2c(SCC(=O)Nc3ccc(F)cc3F)nc3ccccc3n12 please. 1.07

Tell me measured Inhibition for O=C(Cn1nc2nc(Nc3ccc(F)cc3)ccn2c1=O)Nc1cc(F)ccc1F please. -2.67

Tell me measured Inhibition for COc1cc(NC(=O)CSc2nnc3c(=O)n(-c4ccccc4)ccn23)cc(OC)c1 please. 0.85

Tell me measured Inhibition for O=c1n(Cc2ccc3c(c2)OCO3)nc2c(S(=O)(=O)N3CCCC3)cccn12 please. -7.1

Tell me measured Inhibition for CC(C)Cn1c(=O)c2sccc2n2c(=O)n(Cc3ccccc3Cl)nc12 please. -6.09

Tell me measured Inhibition for CCOc1ccc(NC(=O)Cn2nc3ccc(SCc4ccc(Cl)cc4)nn3c2=O)cc1 please. -5.7

Tell me measured Inhibition for Cc1cccc(NC(=O)CSc2nnc3ccc(C(=O)Nc4cccc(F)c4)cn23)c1C please. -1.92

Tell me measured Inhibition for CCOC(=O)c1ccccc1NC(=O)Cn1nc2c(Oc3cccc(C)c3C)nccn2c1=O please. -6.35

Tell me measured Inhibition for Cc1ccc(-n2ccn3c(=O)n(Cc4ccccc4F)nc3c2=O)cc1C please. -3.66

Tell me measured Inhibition for COc1cccc(-n2ccn3c(SCc4c(F)cccc4Cl)nnc3c2=O)c1 please. -9.46

Tell me measured Inhibition for Cc1cccc(Oc2nccn3c(=O)n(CC(=O)N4CCN(c5ccc(F)cc5)CC4)nc23)c1C please. -6.71

Tell me measured Inhibition for COc1ccc(NC(=O)Cn2nc3nc(N4CCCCCC4)ccn3c2=O)cc1Cl please. -10.88

Tell me measured Inhibition for COc1ccc(-c2cc3c4nn(CC(=O)Nc5ccccc5OC)c(=O)n4ccn3n2)cc1 please. -1.9

Tell me measured Inhibition for CC1CC(C)CN(c2nccn3c(=O)n(CC(=O)Nc4cccc(C(F)(F)F)c4)nc23)C1 (stereo unspecified) please. 0.9

Tell me measured Inhibition for CC(C)Cn1c(=O)c2sccc2n2c(=O)n(Cc3ccc(N4CCCC4=O)cc3)nc12 please. -2.57

Tell me measured Inhibition for Cc1cc(C)c(NC(=O)CSc2nnc3c4cc(-c5ccccc5)nn4ccn23)c(C)c1 please. -2.49

Tell me measured Inhibition for CCCCOc1ccc(-c2cc3c4nnc(SCC(=O)N(CC)c5ccccc5)n4ccn3n2)cc1 please. -2.57

Tell me measured Inhibition for O=c1c2sccc2n2c(=O)n(Cc3ccc(F)cc3)nc2n1Cc1cccs1 please. -2.41

Tell me measured Inhibition for CC(C)Cc1ccc(S(=O)(=O)Nc2ccc3nncn3n2)cc1 please. 2.12

Tell me measured Inhibition for COc1ccccc1N1CCN(C(=O)Cn2nc3ccc(-c4ccccc4)nn3c2=O)CC1 please. -1.16

Tell me measured Inhibition for Cc1cc(Nc2ccc(F)cc2)nc2nn(Cc3cccc(C#N)c3)c(=O)n12 please. -11.43
